Biological target: Prostaglandin G/H synthase 1 (Ovis aries)
Sequence (P05979 whole entry): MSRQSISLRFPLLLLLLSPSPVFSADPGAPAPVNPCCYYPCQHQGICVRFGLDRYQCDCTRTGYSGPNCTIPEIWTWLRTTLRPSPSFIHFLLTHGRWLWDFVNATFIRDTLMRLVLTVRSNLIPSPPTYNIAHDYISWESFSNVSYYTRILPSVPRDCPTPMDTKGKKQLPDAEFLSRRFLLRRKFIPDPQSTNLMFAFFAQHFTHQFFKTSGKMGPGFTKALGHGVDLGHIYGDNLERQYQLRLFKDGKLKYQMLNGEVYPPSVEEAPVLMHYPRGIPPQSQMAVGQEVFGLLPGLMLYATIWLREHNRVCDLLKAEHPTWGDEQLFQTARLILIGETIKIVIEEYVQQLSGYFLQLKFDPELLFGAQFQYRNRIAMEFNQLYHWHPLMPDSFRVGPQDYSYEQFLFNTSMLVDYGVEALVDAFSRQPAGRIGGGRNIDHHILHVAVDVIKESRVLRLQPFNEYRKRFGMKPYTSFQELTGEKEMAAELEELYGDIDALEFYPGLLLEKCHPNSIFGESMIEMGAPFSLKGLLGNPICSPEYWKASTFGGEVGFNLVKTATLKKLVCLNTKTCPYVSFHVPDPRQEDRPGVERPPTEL
Assay: Inhibition of ovine COX1 using arachidonic acid substrate assessed as PGE2 production ELISA method after 2 mins
pIC50: −log10 of the molar value.
pIC50 listing for selected compounds.
REPORTED ENDPOINT: pIC50

# SMILES REPRESENTATION, REPORTED RESULT
records = [
    ("O=C1/C(=C/c2ccc(N3CCCC3)cc2)COC/C1=C\\c1ccc(N2CCCC2)cc1", 4.40),
    ("CN1C/C(=C\\c2ccc(N3CCCC3)cc2)C(=O)/C(=C/c2ccc(N3CCCC3)cc2)C1", 4.16),
    ("CN(C)c1ccc(/C=C/C(=O)/C=C/c2ccc(N(C)C)cc2[N+](=O)[O-])c([N+](=O)[O-])c1", 5.40),
    ("CN(C)c1ccc(/C=C2\\CNC/C(=C\\c3ccc(N(C)C)cc3[N+](=O)[O-])C2=O)c([N+](=O)[O-])c1", 6.17),
]

----------
experiment: Inhibition of sPLA2-V (unknown origin) using substrate 1,2-bis(heptanoylthio)-glycerophosphocholine by Ellman's method based photometric assay; design: species or system Homo sapiens
pIC50: −log10 of the molar value.
Assign met to entries whose pIC50 meets or exceeds 5; assign not met to the rest.

# COMPOUND, CAT
data = [
    ("CN(C)c1ccc(/C=C2\\CC/C(=C\\c3ccc(N(C)C)cc3[N+](=O)[O-])C2=O)c([N+](=O)[O-])c1", "not met"),
    ("CCOC(OCC)c1ccc(/C=C2\\CN(Cc3ccccc3)C/C(=C\\c3ccc(C(OCC)OCC)cc3)C2=O)cc1", "not met"),
    ("CN(C)c1ccc(/C=C2\\CNC/C(=C\\c3ccc(N(C)C)cc3[N+](=O)[O-])C2=O)c([N+](=O)[O-])c1", "met"),
    ("O=C(/C=C/c1ccc(N2CCCC2)cc1)/C=C/c1ccc(N2CCCC2)cc1", "not met"),
    ("CCOC(OCC)c1ccc(/C=C2\\Cc3ccccc3C2=O)cc1", "not met"),
    ("CCOC(OCC)c1ccc(/C=C/C(=O)/C=C/c2ccc(C(OCC)OCC)cc2)cc1", "not met"),
    ("CN(C)c1ccc(/C=C2\\Cc3ccccc3C2=O)c([N+](=O)[O-])c1", "not met"),
    ("O=C1/C(=C/c2ccc(N3CCCC3)cc2)COC/C1=C\\c1ccc(N2CCCC2)cc1", "not met"),
    ("CCOC(OCC)c1ccc(/C=C2\\CN(C)C/C(=C\\c3ccc(C(OCC)OCC)cc3)C2=O)cc1", "met"),
    ("O=C1/C(=C/c2ccc(N3CCCC3)cc2)CCc2ccccc21", "not met"),
    ("CCOC(OCC)c1ccc(/C=C2\\CCc3ccccc3C2=O)cc1", "not met"),
    ("O=C(/C=C/c1ccc(N2CCCC2)cc1)C1CCc2ccccc2C1=O (centres undefined)", "not met"),
    ("CCOC(OCC)c1ccc(/C=C2\\CNC/C(=C\\c3ccc(C(OCC)OCC)cc3)C2=O)cc1", "met"),
    ("CCOC(OCC)c1ccc(/C=C/C(=O)C2CCc3ccccc3C2=O)cc1 (centres undefined)", "not met"),
]
